- system_name: GST fusion human ERK2 protein (Homo sapiens, UniProt P28482)
- Construct: purchased Carna Biosciences, Inc; host or cells: E. coli expression system
- Sequence (P28482 whole entry, the tested form may be a part): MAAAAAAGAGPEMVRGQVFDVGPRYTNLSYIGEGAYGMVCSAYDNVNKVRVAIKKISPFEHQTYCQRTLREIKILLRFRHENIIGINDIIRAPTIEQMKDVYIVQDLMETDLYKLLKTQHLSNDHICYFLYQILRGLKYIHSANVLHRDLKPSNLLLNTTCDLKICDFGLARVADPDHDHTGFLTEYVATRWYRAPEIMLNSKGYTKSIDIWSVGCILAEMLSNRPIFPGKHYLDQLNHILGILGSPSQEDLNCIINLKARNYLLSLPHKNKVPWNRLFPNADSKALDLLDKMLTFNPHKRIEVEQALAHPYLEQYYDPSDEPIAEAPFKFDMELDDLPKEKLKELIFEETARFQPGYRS
- assay_protocol: ERK2 enzyme assay (2)
- Type: biochemical
- recorded_conditions: ERK2 enzyme assay (2); read-out: ERK2 enzyme inhibitory activity (2)
measurement_label: IC50

[[record]]
molecule = "CC(C)c1cnnc(Nc2ccc3ncc(-c4cnn(CCCN5CCOCC5)c4)cc3n2)c1 [Example 0368]"
val = "< 1000 nM"


Data point: CC(C)c1cnnc(Nc2ccc3ncc(C4=CCN(C(=O)OC(C)(C)C)CC4)cc3n2)c1 [Example 0880] ; IC50 = < 1000 nM

Data point: COC1(C)CN(c2cnc3ccc(Nc4cc(C(C)C)cnn4)nc3c2)C1 [Example 0859] ; IC50 = < 1000 nM
